Readings of Ratio/Fc-H for the listed binders
- testTarget: T1, FcRn-p3 fusion protein (human, UniProt P55899 24-297; P61769 21-119)
- T1 construct: baculovirus expressed; coated on ELISA wells; not shown: amino terminal part of bacteriophage p3 protein and CVDE protein
- T1 sequence (P55899 24-297, chain 1 of 2): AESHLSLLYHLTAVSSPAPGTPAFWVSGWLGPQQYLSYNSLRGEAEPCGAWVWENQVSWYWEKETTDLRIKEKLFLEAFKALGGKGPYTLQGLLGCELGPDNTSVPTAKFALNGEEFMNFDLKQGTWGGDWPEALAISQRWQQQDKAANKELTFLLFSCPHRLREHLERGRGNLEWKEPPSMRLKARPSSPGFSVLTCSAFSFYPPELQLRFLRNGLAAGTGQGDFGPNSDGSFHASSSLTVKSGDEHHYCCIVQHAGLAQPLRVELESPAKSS
- T1 sequence (P61769 21-119, chain 2 of 2): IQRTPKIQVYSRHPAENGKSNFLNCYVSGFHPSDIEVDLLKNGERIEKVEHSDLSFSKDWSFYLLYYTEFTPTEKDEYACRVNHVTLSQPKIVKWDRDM
- procedureText: phage ELISA pH6
Give a bare numeral; the unit fold is implied.

M3A_08 (other, EU numbering) CPPCPAPELLGGPSVFLFPPKPKDTLMISRTPEVTCVVEDVSHEDPEVKFNWYVDGVEVHNAKTKPREEQYNSTYRVVSVLPVLHQDWLNGKEYKCKVSNKALPAPIEKTISKAKGQPREPQVYTLPPSRDELTKNQVSLTCLVKGFYPSDITVEWESNGQPENNYKTTPPMLDSDGSFFLYSKLTVDKSRWQQGNVFSCSVMHEALHNHYTQKSLSLSPGK	1.7
T5A_59 (other, EU numbering) CPPCPAPELLGGPSVFLFPPKPKDTLMISRTPEVTCVVVDVSHEDPEVKFNWYVDGVEVHNAKTKPREEQYNSTYRVVSVLTVLHQDWLNGKEYKCKVSNKALPAPIEKTISKAKGRPREPQVYTLPPSGDELTKNQVSLTCLVKGFYPSDIAVEWVSNGQPENNYKTTPPVLDSDGSFFLYSKLTVDKSRWQQGNVFSCSVMHEALHYHYTQKSLSLSPGK	2.4
T4A_19 (other, EU numbering) CPPCPAPELLGGPSVFLFPPKPKDTLMISRTPEVTCVVVDVSHEDPEVKFNWYVDGVEVHNAKTKPREEQYNSTYRVVSVLPVLHQDWLNGKEYKCKVSNKALPAPIEKTISKAKGQPREPQVYTLPPSRDELTKNQVSLTCLVKGFYPSDIVVEWESNGQPENNYKTTPPVLDSDGSFFLYSKLTVDKSRWQQGNVFSCSVMHEALHSHYTQKSLSLSPGK	3.6

Q. Returns the measured Ratio/Fc-H for the input binder. Input: C8A_14 (other, EU numbering) CPPCPAPELLGGPSVFLFPPKPKDTLMISRTPEVTCVVVDVSHEDPEVKFNWYVDGVEVHNAKTKPREEQYNSTYRVVSALTVLHQDWLNGKEYKCKVSNKALPAPIEKTISKAKGQPREPQVYTLPPSRDELTKNQVSLTCLVKGFYPSDIAVEWESNGRPENNYKTTPPVLDSDGSFFLYSKLTVDKSRWQQGNVFSCSVMHEALHYHYTQKSLSLSPGK
A. 2.4

Q. Find the recorded Ratio/Fc-H belonging to T3A_34 (other, EU numbering) CPPCPAPELLGGPSVFLFPPKPKDTLMISRTPEVTCVVEDVSHEDPEVKFNWYVDGVEVHNAKTKPREEQYNSTYRVVSVLTVLHQDWLNGKEYKCKVSNKALPAPIEKTISKAKGQPREPQVYTLSPSRDELTKNQVSLTCLVKGFYPSDIVVEWESNGQPENNYKTTPPVLDSDGSFFLYSKLTVDKSRWQQGNVFSCSVMHEALHNHYTQKSLSLSPGK and report it.
A. 1.4
